Tested target: AchR (Homo sapiens, UniProt P02708)
Sequence (P02708 21-457): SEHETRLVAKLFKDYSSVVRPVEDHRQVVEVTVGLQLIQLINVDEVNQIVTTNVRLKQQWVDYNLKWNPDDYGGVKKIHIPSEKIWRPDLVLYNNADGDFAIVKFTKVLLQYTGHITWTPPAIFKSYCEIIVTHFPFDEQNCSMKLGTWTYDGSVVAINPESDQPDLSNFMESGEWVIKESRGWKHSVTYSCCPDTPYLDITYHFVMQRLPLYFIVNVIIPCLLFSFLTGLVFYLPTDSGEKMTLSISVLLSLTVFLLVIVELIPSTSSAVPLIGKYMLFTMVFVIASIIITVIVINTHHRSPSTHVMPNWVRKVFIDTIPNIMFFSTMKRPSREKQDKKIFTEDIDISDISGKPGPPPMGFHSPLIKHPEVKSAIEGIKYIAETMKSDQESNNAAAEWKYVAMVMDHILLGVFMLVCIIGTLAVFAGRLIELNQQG
Experiment description: ELISA of screened peptide phages on AchR versus streptavidin (OD450)
Assay type: binding
Measurement context: ELISA of selected 14-mer (L3) peptide phages on AchR, absorbance at 450 nm; Spep-2 positive control
OD: recorded values
The reply should be a number, written without any unit.

Task: Please give the measured OD for this substance: L3-146 (AVWRNRKDNVKASE; AchR binding peptide) [Peptide L3-146]
Output: 0.512

Task: // next record L3-4 (MPQKLKKLDIRNHN; AchR binding peptide) [Peptide L3-4]
Output: 0.905

Task: // next record L3-131 (YTPKFRRIFWRIID; AchR binding peptide) [Peptide L3-131]
Output: 0.655

Task: // next record L3-88 (PETRHRKMFIRDFW; AchR binding peptide) [Peptide L3-88]
Output: 0.7

Task: // next record L3-28: 14-mer optimized peptide of the L3 library (Table 12, not shown here) (PNGKVRKRIRRRYF; AchR binding peptide) [Peptide L3-28]
Output: 0.803

Task: // next record L3-182 (FYLRERRHQLKTEF; AchR binding peptide) [Peptide L3-182]
Output: 0.818

Task: // next record L3-54 (FFLRCRRLLGKVQV; AchR binding peptide) [Peptide L3-54]
Output: 0.784

Task: // next record L3-91 (CWCRQRKCFHKPWI; AchR binding peptide) [Peptide L3-91]
Output: 0.749
